Experiment: Plasma concentration in balb/c athymic nu/nu mouse at 20 mg/kg, po measured after 5 hrs
Format: ADME, organism-based
Endpoint: concentration at 5 h (nM)
Response body: numeric value in nM, unit text excluded.

Input Cn1cnc(-c2cc3nccc(Oc4ccc(NC(=S)NC(=O)Cc5ccccc5)cc4F)c3s2)c1 . Output concentration at 5 h: 800

###

Target: Protein smoothened (Homo sapiens, UniProt Q99835, V404M)
Test: Displacement of [3H]-cyclopamine from SMO V404M mutant in gefitinib resistant human HCC827 cells by scintillation counting
Endpoint: Ki (nM)

| Molecule | Tgt | Test Result |
| --- | --- | --- |
| Cc1ccc(F)c(NC(=O)Nc2ccc(-c3cccc4[nH]nc(N)c34)cc2)c1 [LINIFANIB] | Protein smoothened (Homo sapiens, UniProt Q99835, V404M) | 87.6 |
| O=C(NNC(=O)c1ccc([N+](=O)[O-])cc1)C(=O)c1c[nH]c2ccccc12 | Protein smoothened (Homo sapiens, UniProt Q99835, V404M) | 168 |
| CCN1CCN(c2ccc(Nc3cc(N(C)C(=O)Nc4c(Cl)c(OC)cc(OC)c4Cl)ncn3)cc2)CC1 [INFIGRATINIB] | Protein smoothened (Homo sapiens, UniProt Q99835, V404M) | 46.5 |
| CSc1cccc(Nc2ncc3cc(-c4c(Cl)cccc4Cl)c(=O)n(C)c3n2)c1 | Protein smoothened (Homo sapiens, UniProt Q99835, V404M) | 46.2 |
| COc1cc2c(Oc3ccc(NC(=O)C4(C(=O)Nc5ccc(F)cc5)CC4)cc3F)ccnc2cc1OCCCN1CCOCC1 [FORETINIB] | Protein smoothened (Homo sapiens, UniProt Q99835, V404M) | 66.8 |

1 = Cn1cnc(-c2cc3nccc(Oc4ccc(NC(=S)NC(=O)Cc5ccccc5)cc4F)c3s2)c1
2 = COc1cc2ncnc(Oc3cccc(NC(=O)Nc4cc(C(C)(C)C(F)(F)F)on4)c3)c2cc1OC [CEP-32496]
Could you tell me which of 1 and 2 has the lower Ki reading? Give the label of your selection. 1

###

Test system: Protein smoothened (Homo sapiens), Q99835 [V404M]
Sequence (Q99835 whole entry V404M): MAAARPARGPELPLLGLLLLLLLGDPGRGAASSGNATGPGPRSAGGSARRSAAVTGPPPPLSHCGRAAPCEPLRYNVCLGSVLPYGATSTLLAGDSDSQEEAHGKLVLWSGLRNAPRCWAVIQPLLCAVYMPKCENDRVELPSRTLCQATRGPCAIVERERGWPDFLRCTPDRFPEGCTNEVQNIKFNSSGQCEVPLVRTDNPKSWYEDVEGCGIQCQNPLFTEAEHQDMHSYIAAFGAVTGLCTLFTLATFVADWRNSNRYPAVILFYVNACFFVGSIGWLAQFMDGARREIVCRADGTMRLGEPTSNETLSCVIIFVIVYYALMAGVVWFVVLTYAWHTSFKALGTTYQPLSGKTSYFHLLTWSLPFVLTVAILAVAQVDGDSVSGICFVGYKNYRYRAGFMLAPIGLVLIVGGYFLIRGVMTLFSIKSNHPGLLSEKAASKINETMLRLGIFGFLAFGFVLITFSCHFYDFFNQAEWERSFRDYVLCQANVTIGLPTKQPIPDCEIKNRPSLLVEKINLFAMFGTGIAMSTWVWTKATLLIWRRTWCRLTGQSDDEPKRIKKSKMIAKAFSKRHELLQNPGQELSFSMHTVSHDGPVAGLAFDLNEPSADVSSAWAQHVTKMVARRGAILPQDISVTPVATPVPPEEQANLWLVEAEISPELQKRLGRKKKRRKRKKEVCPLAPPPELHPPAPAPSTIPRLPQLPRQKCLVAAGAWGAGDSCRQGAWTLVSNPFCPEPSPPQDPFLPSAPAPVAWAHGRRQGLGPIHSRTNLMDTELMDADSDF
Test: Inhibition of SMO V404M mutant in gefitinib resistant human HCC827 cells assessed as decrease in GLI1 activity at 2 to 60 uM in presence of SMO agonist SAG by GLI1 luciferase reporter assay
Activity calls are given as the source filed them. The calls are words filed in the database; no cut-off is given here.
Endpoint: inhibition

These solved cases illustrate the format of a correct answer.
| Compound | Tgt | inhibition |
| --- | --- | --- |
| COc1cc2ncnc(Oc3cccc(NC(=O)Nc4cc(C(C)(C)C(F)(F)F)on4)c3)c2cc1OC [CEP-32496] | Protein smoothened (Homo sapiens), Q99835 [V404M] | inactive |
| COc1cc2c(Oc3ccc(NC(=O)C4(C(=O)Nc5ccc(F)cc5)CC4)cc3F)ccnc2cc1OCCCN1CCOCC1 [FORETINIB] | Protein smoothened (Homo sapiens), Q99835 [V404M] | inactive |
| Cc1ccc(F)c(NC(=O)Nc2ccc(-c3cccc4[nH]nc(N)c34)cc2)c1 [LINIFANIB] | Protein smoothened (Homo sapiens), Q99835 [V404M] | inactive |
| Cc1ccc(NC(=O)CN2C(=O)/C(=N/NC(=O)c3cc(Br)ccc3O)c3ccccc32)cc1 | Protein smoothened (Homo sapiens), Q99835 [V404M] | inactive |
| CSc1cccc(Nc2ncc3cc(-c4c(Cl)cccc4Cl)c(=O)n(C)c3n2)c1 | Protein smoothened (Homo sapiens), Q99835 [V404M] | inactive |
| Cn1cnc(-c2cc3nccc(Oc4ccc(NC(=S)NC(=O)Cc5ccccc5)cc4F)c3s2)c1 | Protein smoothened (Homo sapiens), Q99835 [V404M] | inactive |
| O=C(NNC(=O)c1ccc([N+](=O)[O-])cc1)C(=O)c1c[nH]c2ccccc12 | Protein smoothened (Homo sapiens), Q99835 [V404M] | inactive |

--- query ---
Input CCN1CCN(c2ccc(Nc3cc(N(C)C(=O)Nc4c(Cl)c(OC)cc(OC)c4Cl)ncn3)cc2)CC1 [INFIGRATINIB] . Output inhibition: inactive

These entries and their values trace back to ChEMBL document CHEMBL4038343.
